Entry source: PubChem BioAssay (NCI)

tested on: HT29 colon; experiment: NCI tumour cell line growth inhibition, 48 h
attribute measured: TGI

Q: Suppose we examine the compound C=CCOC(=O)C1C2OC3(C(C(=O)OC)=C2C(=O)OC)c2ccccc2CCC13 (stereo not drawn) ; what TGI value has been reported?
Ans: > 10 µM

Q: // query TGI value for entry CC1(C)C2CCC13CS(=O)(=O)N1O[C@]13C(=O)O2 (stereo partly drawn)
Ans: > 100 µM

Q: Field request: TGI | item: `COc1ccc(CSc2ccccc2Cn2cccc2)cc1OC`
Ans: > 100 µM

Q: Which TGI is reported for this compound? OC(c1ccc(-c2ccccc2)cc1)C(F)(F)c1nc2ccccc2o1 (stereo not drawn)
Ans: > 100 µM

Q: So what's the measured TGI for this one? `CCN(CC)CCNCc1cc(Cl)cc2c1OCOC2`
Ans: > 10 µM

Q: TGI for CC(C)[C@@H]1ON1C(C)c1ccccc1 (stereo partly drawn) ?
Ans: > 100 µM

Q: Which TGI value is on record for `COC(=O)C(C)(C)N=CN(C)C` ?
Ans: > 100 µM

Q: Recorded TGI for Cc1ccc(CC(C)N)cc1 (stereo not drawn) , please?
Ans: > 100 µM

Q: # get_value(readout='TGI', item= `CN(C)c1ccc(/C=C2\C=Cc3ccccc32)cc1` )
Ans: > 100 µM

Q: Query: TGI; subject: `O=C(O)COc1c(Cl)cc(Cl)c2cccnc12`
Ans: > 100 µM

Q: So what's the measured TGI for this one? `BrCc1ccc(CBr)cc1`
Ans: > 23.9 µM

Q: # input compound: `O=[As](O)(O)c1ccc(N=Nc2ccc(O)cc2)cc1` ; wanted: its TGI
Ans: > 100 µM

Q: What value of TGI has been reported for the following compound? COc1cc2c(cc1OC)C1(c3ccc(Cl)cc3)ON=C(c3ccccc3)N1CS2 (stereo not drawn)
Ans: > 100 µM

----------
test system: HOP-62 NSCLC; assay: NCI tumour cell line growth inhibition, 48 h
Hi there, I'd appreciate the recorded TGI for every entry that follows.

Q: Please give the measured TGI for this compound: C#CCOCC12C=CC(O1)C1C(=O)OCC12 (centres undefined)
Ans: > 100 µM

Q: Please look up its TGI: CSCCC(NC(=O)Cc1ccc(C(=O)c2ccccc2)cc1)C(=O)O (centres undefined)
Ans: > 100 µM

Q: Requested read-out: TGI. Entry: `C[CH2][Pb]([CH2]C)([CH2]C)[O]C(=O)c1ccc2ccccc2n1`
Ans: > 10 µM

Q: What TGI value was documented for this compound, `COc1cc2nc(NCCCCCNC(=O)c3ccco3)nc(N)c2cc1OC` ?
Ans: 61.3 µM

----------
system: CAKI-1 renal; test: NCI tumour cell line growth inhibition, 48 h
Give measured TGI for each item. Keep answers brief.

Q: Please look up its TGI: CCOc1cc(NC(C)=O)ccc1C(=O)NN1C(=O)C(Cl)C1c1ccco1 (stereo not drawn)
Ans: 30.9 µM

Q: Fill blank: measured TGI of the molecule `COc1ccc(OC)c(Cn2cc3c(c2)-c2oncc2CC3)c1` is ____.
Ans: > 100 µM

Q: Field request: TGI | item: `Cn1c2ccccc2n2c(=O)c3c(c(C#N)c12)CCCC3`
Ans: > 100 µM

Q: May I ask what TGI has been recorded for `C#CCOc1cccc(Nc2ncnc3c(NC(=O)CCl)cccc23)c1` ?
Ans: 30.7 µM

Q: Quick one: TGI for `CCOC(=O)C(=O)Nc1cc(Cl)ccc1Cl` ?
Ans: > 100 µM

Q: Looking for the measured TGI of CCOP(=O)(OCC)C(C)(CC)NC (stereo not drawn) , can you help?
Ans: > 100 µM

Q: Which TGI reading was recorded for the molecule `COc1cc(-c2cc(-c3cc([N+](=O)[O-])c(/C=N/NC(=O)c4ccncc4)o3)ccc2OC)ccc1C` ?
Ans: > 100 µM

Q: # get_value(readout='TGI', item= `CN1CCC(n2cnc(-c3ccc(F)cc3)c2-c2ccnc(N)n2)CC1` )
Ans: > 24.1 µM
